Below, each entry is listed with its recorded scaled lipid accumulation score.
Tested on: primary human hepatic stellate cells (donor 1)
Experiment: scaled lipid accumulation score (0 = DMSO-like, 1 = nortriptyline-like); higher = stronger HSC inactivation (lipid re-accumulation), active = hit call of the paper
Settings: library stock concentration: 1 mM; 48 h
In all, about 5,800 compounds went through this assay and about 620 (11%) showed activity. This excerpt belongs to a sample that is enriched for actives.

| compound | scaled lipid accumulation score |
| --- | --- |
| CCCCCCCCCCCCCCCCCCCCCCC(=O)OCC [Ethyl Tricosanoate] | ≤ 0 (inactive) |
| O=C(O)CCCCCCC1C(=O)NC(=O)N1CCC(O)C1CCCCC1 (stereo not drawn) | ≤ 0 (inactive) |
| O=C(NCCN1CCC(n2c(=O)[nH]c3cc(Cl)ccc32)CC1)c1ccc(F)cc1 [Halopemide] | ≤ 0 (inactive) |
| CCCCCC=CCC=CCC=CCC=CCCCC(=O)OCC(O)CO (stereo not drawn) | 0.012 (inactive) |
| C[C@@H](CN1CCC(n2c(=O)[nH]c3cc(Cl)ccc32)CC1)NC(=O)c1ccc2ccccc2c1 | 0.02 (inactive) |

Q. Recorded scaled lipid accumulation score for CCCCC[C@H](O)/C=C/[C@H]1OC(O)C[C@H](O)[C@@H]1CCCCCCC(=O)O (stereo partly drawn) , please?
A. 0.131 (inactive)

Q. Next compound: CCCCC[C@@](C)(O)/C=C/[C@@H]1[C@@H](C/C=C\CCCC(=O)O)[C@@H](O)C[C@H]1O [15(R)-15-methyl Prostaglandin F2.alpha.]
A. ≤ 0 (inactive)

Q. Next compound: CCCCC[C@H](O)/C=C/[C@@H]1[C@@H](C/C=C\CCCC(=O)NCC)[C@@H](O)C[C@H]1O [Prostaglandin F2.alpha. ethyl amide]
A. ≤ 0 (inactive)

* * *

Tested on: primary human hepatic stellate cells (donor 1)
Test: scaled lipid accumulation score (0 = DMSO-like, 1 = nortriptyline-like); higher = stronger HSC inactivation (lipid re-accumulation), active = hit call of the paper
Conditions: library stock concentration: 10 mM; 48 h
The campaign covered roughly 5,800 compounds. About 620 (11%) showed activity.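 Rule for the calls: active = score above a cut-off or among the top three wells of a plate; in these data no inactive exceeds 0.85.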 What follows is part of a selection rich in actives, with near analogues and random picks from the rest.
Your reply should match one of these outcome classes. active, inactive

Q. # outcome recorded in this test, key = CNCCCC1c2ccccc2C=Cc2ccccc21.Cl [Protriptyline hydrochloride]
A. active

Q. Next compound: CC1=C(/C=C/C(C)=C/C=C/C(C)=C/C=C/C=C(C)/C=C/C=C(C)/C=C/C2=C(C)C(=O)[C@@H](O)CC2(C)C)C(C)(C)C[C@H](O)C1=O [Astaxanthin]
A. inactive

Q. Next compound: CC(=O)Oc1cccc(O)c1 [Resorcinol monoacetate]
A. inactive

Q. Next compound: NC1CONC1=O (racemic) [DL-Cycloserine]
A. inactive

Q. Next compound: `CCNC(=O)c1noc(-c2cc(Cl)c(O)cc2O)c1-c1ccc(OC)cc1`
A. inactive

* * *

Tested on: primary human hepatic stellate cells (donor 1)
Experiment: scaled lipid accumulation score (0 = DMSO-like, 1 = nortriptyline-like); higher = stronger HSC inactivation (lipid re-accumulation), active = hit call of the paper
Details: library stock concentration: 1 mM; 48 h
Where a name gives a salt, the structure may show the parent alone. Screen size: about 5,800 compounds; about 620 (11%) showed activity. The full list was thinned out, with actives kept by preference.
measured_metric: scaled lipid accumulation score

Worked examples follow.
| compound | scaled lipid accumulation score |
| --- | --- |
| CCCCC1CCC(c2nc(-c3ccncc3)no2)CC1 (stereo not drawn) | 0.03 (inactive) |
| N[C@@H](CO)c1ccccc1 [(R)-(-)-2-Phenylglycinol] | ≤ 0 (inactive) |
| CCCCCCCC/C=C\CCCCCCCC(=O)NCC [Oleoyl Ethyl Amide] | ≤ 0 (inactive) |
| CC(=Cc1ccc(C(=O)O)cc1)c1ccc2c(c1)C(C)(C)CCC2(C)C | ≤ -0.021 (inactive) |
| CCCCCCCC/C=C\C/C=C\C/C=C\CCCC(=O)O [Mead acid (20:3 n-9)] | 0.025 (inactive) |
| O=C(/C=C/c1ccc(/C=C/C(=O)Nc2ccc(C3=NCCN3)cc2)cc1)Nc1ccc(C2=NCCN2)cc1 [GW 4869 (hydrochloride hydrate)] | 0.115 (inactive) |
| O=C(O)CCC/C=C\C[C@@H]1[C@@H](/C=C/[C@@H](O)Cc2ccccc2)[C@H](O)C[C@@H]1O [16-phenyl tetranor Prostaglandin F2.alpha.] | ≤ 0 (inactive) |
| CCCCC[C@H](O)/C=C/[C@@H]1[C@@H](C/C=C\CCCC(=O)NC(CO)CO)[C@@H](O)C[C@H]1O [Prostaglandin F2.alpha. serinol amide] | ≤ 0 (inactive) |

Q. Recorded scaled lipid accumulation score for CCCCCCC=CCCCCCCCCCCOC(C)=O [11-cis Vaccenyl Acetate] , please?
A. ≤ 0 (inactive)

Q. Next compound: CCCCCCCCCC(=O)NC(CN1CCOCC1)C(O)c1ccccc1 (racemic)
A. ≤ -0.021 (inactive)

Q. Next compound: O=C(O)COc1ccc(C(=O)c2cccs2)c(Cl)c1Cl [Tienilic Acid]
A. ≤ 0 (inactive)

Q. Next compound: CC(C)CCOc1ccc(N)cc1 [CP 24,879 (hydrochloride)]
A. ≤ 0 (inactive)

Q. Next compound: CCCCC[C@H](O)/C=C/[C@@H]1[C@@H](C/C=C\CCCC(=O)NCCO)[C@@H](O)C[C@@H]1O [11.beta.-Prostaglandin F2.alpha. Ethanolamide]
A. ≤ 0 (inactive)

Q. Next compound: O=C1O/C(=C/Br)CCC1c1cccc2ccccc12 (stereo not drawn) [Bromoenol lactone]
A. ≤ 0 (inactive)

Q. Next compound: `O=S(=O)(c1ccccc1)N(CC(F)(F)F)c1ccc(C(O)(C(F)(F)F)C(F)(F)F)cc1`
A. 0.1 (inactive)

Q. Next compound: `COc1cc2c(cc1OC)-c1[nH]nc(Nc3cccc(F)c3)c1C2`
A. ≤ 0 (inactive)

Q. Next compound: CCCCC[C@](C)(O)/C=C/[C@@H]1[C@@H](C/C=C\CCCC(=O)O)[C@@H](O)C[C@H]1O [15(S)-15-methyl Prostaglandin F2.alpha.]
A. ≤ 0 (inactive)

Q. Next compound: CC\C=C/C=C/C=C/C=C\CCCCCCCC(=O)O [cis-Parinaric Acid]
A. 0.028 (inactive)

Q. Next compound: CCC=CCC=CCC=CCC=CCCCCC(=O)OCC [Stearidonic Acid ethyl ester]
A. ≤ 0 (inactive)

Q. Next compound: CCCCC/C=C\CCCCCCCCCCCCC(=O)O [14(Z)-Eicosenoic Acid]
A. ≤ 0 (inactive)

Q. Next compound: O=C(O)CCCCCCC1C(=O)N(Cc2ccccc2)C(=O)N1NCC(O)C1CCCCC1 (stereo not drawn)
A. ≤ 0 (inactive)

Q. Next compound: CCCCCCCC/C=C/CCCCCCCC(=O)O [Elaidic Acid]
A. ≤ 0 (inactive)

Q. Next compound: O=C(O)CCC/C=C\C[C@H]1C(=O)C=C[C@@H]1/C=C/[C@@H](O)CCc1ccccc1 [17-phenyl trinor Prostaglandin A2]
A. ≤ 0 (inactive)

Q. Next compound: CCCCCCCCCCCCCC(=O)O [Myristic Acid]
A. ≤ 0 (inactive)

Q. Next compound: CCCCC/C=C\C/C=C\C/C=C\CCCCC(=O)O [Gamma-linolenic acid (18:3 n-6)]
A. 0.024 (inactive)

Q. Next compound: CCCCCCCC/C=C\CCCCCCCC(=O)OC[C@@H](O)COP(=O)(O)O [1-Oleoyl Lysophosphatidic Acid]
A. ≤ 0 (inactive)
